Test system: Zika virus NS2B-NS3 protease
Assay: Primary screen GU AMC qHTS for Zika virus inhibitors (AID 1347154); also: nearly all actives have a fitted effect of over 70% in size
Settings: Zika NS2B-NS3 unlinked protease, AMC fluorogenic substrate; series mostly up to 54.1 µM
Inconclusive results are not listed. The source made the active and inactive calls. Calls follow the shape of the dose curve; as a rule, active = well fitted inhibition curve with a large enough effect; inconclusive = small, poorly fitted or top-dose-only effect; inactive = flat fitted curve, though single readings scatter.
Outcomes you can answer with include only these: yes (1) = active, no (0) = inactive

Known results for molecules:
>  <molecule>
O=C(CC12CC3CC(CC(C3)C1)C2)Nc1cccc2nc(NCCNCCO)ccc12

>  <category>
no (0)

$$$$
>  <molecule>
O=c1[nH]nc(OCCCc2ccc(Cl)cc2)c(NCc2cccnc2)c1Br

>  <category>
no (0)

$$$$
>  <molecule>
CN[C@@H]1[C@@H](O)[C@@H](O[C@@H]2[C@@H](O)[C@H](O[C@H]3O[C@H](CN)[C@@H](O)[C@H](O)[C@@H]3O)[C@@H](N)C[C@@H]2NC(=O)[C@@H](O)CN)OC[C@]1(C)O

>  <category>
no (0)

$$$$
>  <molecule>
Cc1nc2c([nH]1)CCN(C(=O)c1ccc(NC(=O)c3ccccc3-c3ccccc3)cc1)c1ccccc1-2

>  <category>
no (0)

$$$$
>  <molecule>
O=C(c1ccc(C=Cc2n[nH]c3ccccc23)cc1)N1CCNCC1

>  <category>
yes (1)

$$$$
>  <molecule>
FC(F)(F)c1ccc(C=Cc2nc(COc3ccc(CCCCn4ccnn4)cc3)co2)cc1

>  <category>
no (0)

$$$$
>  <molecule>
CCNC(=O)Nc1ccc(Oc2ncnc(N)c2C=NOC)cc1Cl

>  <category>
no (0)

$$$$
>  <molecule>
COc1nccc(-c2c(-c3ccc(F)cc3)ncn2C2CCNCC2)n1

>  <category>
no (0)

$$$$

Q: What did this assay record as the result for CC1CCN(c2cc(N3CCN(C)CC3)ccc2NC(=O)c2cc(C#N)c[nH]2)CC1 ?
A: no (0)

Q: What did this assay record as the result for CN1CCN2c3ncccc3Cc3ccccc3C2C1 (stereo not given) ?
A: no (0)

Q: What did this assay record as the result for Cc1ccc(C(=O)N(CCCN)[C@@H](c2nc3cc(Cl)ccc3c(=O)n2Cc2ccccc2)C(C)C)cc1 ?
A: no (0)

Q: What did this assay record as the result for O=C(O)C1=CO[C@@H](O[C@@H]2O[C@H](CO)[C@H](O)[C@H](O)[C@H]2O)[C@@H]2C(CO)=CC[C@H]12 ?
A: no (0)

Q: What did this assay record as the result for OC1CCC(Nc2ncc3nc(Nc4c(F)cc(F)cc4F)n([C@@H]4CCOC4)c3n2)CC1 (stereo not given in full) ?
A: yes (1)

Q: What did this assay record as the result for CC(C)(OCc1nn(Cc2ccccc2)c2ccccc12)C(=O)O ?
A: no (0)

Q: What did this assay record as the result for COC1CCC(C(=O)c2ccc3nc4c(cc3c2)CCCO4)CC1 (stereo not given) ?
A: no (0)

###

Reported parasite growth remaining, % of DMSO control (lower = more inhibition) values follow for various compounds
Assay: qHTS profiling of the MIPE4 collection as inhibitors of Plasmodium falciparum (DD2) proliferation (AID 743345)
Details: P. falciparum Dd2 in erythrocytes, SYBR Green DNA, 72 h; at 28.5 µM (top of the series) unless noted

Please review the following examples before continuing.
>  <compound>
Cc1cnc(CNC(=O)c2c(=O)c3ccc(N4CCCN(C)CC4)nc3n3c2sc2ccccc23)cn1

>  <result>
8.18% [at 9.64 µM]

$$$$
>  <compound>
OC(c1cc(C(F)(F)F)nc2c(C(F)(F)F)cccc12)C1CCCCN1 (stereo unspecified)

>  <result>
9.36%

$$$$
>  <compound>
O=[N+]([O-])c1ccc(Nc2ccccc2-c2ccccc2)c2nonc12

>  <result>
83.4%

$$$$
>  <compound>
COc1ccc2c(c1)c(C1=C(c3c[nH]c4ccccc34)C(=O)NC1=O)cn2CCCN(C)C

>  <result>
8.71%

$$$$
>  <compound>
C[C@@H](O)[C@H]1C(=O)N2C(C(=O)OCOC(=O)C(C)(C)C)=C(SC3CN(C4=NCCS4)C3)[C@H](C)[C@H]12

>  <result>
99.9%

$$$$
>  <compound>
CC(C)CNc1ccnc(NCc2csc(-c3ccccc3)n2)n1

>  <result>
31.7%

$$$$
>  <compound>
C=C1c2cccc(O)c2C(O)=C2C(=O)[C@@]3(O)C(O)=C(C(N)=O)C(=O)[C@@H](N(C)C)[C@@H]3[C@@H](O)[C@H]12

>  <result>
36.4%

$$$$
>  <compound>
CN(C)c1nc(Cc2ccc(NC(=O)c3ccc(C(F)(F)F)cc3)cc2)nc(N(C)C)c1CC(=O)O

>  <result>
90.9%

$$$$
>  <compound>
Oc1ccc(C=Cc2cc(O)cc(O)c2)cc1

>  <result>
96.9%

$$$$
>  <compound>
OCCn1cc(-c2ccc3c(c2)CCC3=NO)c(-c2ccncc2)n1

>  <result>
83.9%

$$$$

Read the next record carefully.
Q: Give the measured parasite growth remaining, % of DMSO control (lower = more inhibition) for O=C1CCCC(=O)C1C(=O)c1ccc(C(F)(F)F)cc1[N+](=O)[O-]
A: 103%
